Entries and their % activity at 10
Molecular target: rat recombinant neurolysin (Rattus norvegicus, UniProt P42676)
Construct: polyhistidine (N); made in house; host or cells: Escherichia coli (pBAD/His vector)
Sequence (P42676 38-704): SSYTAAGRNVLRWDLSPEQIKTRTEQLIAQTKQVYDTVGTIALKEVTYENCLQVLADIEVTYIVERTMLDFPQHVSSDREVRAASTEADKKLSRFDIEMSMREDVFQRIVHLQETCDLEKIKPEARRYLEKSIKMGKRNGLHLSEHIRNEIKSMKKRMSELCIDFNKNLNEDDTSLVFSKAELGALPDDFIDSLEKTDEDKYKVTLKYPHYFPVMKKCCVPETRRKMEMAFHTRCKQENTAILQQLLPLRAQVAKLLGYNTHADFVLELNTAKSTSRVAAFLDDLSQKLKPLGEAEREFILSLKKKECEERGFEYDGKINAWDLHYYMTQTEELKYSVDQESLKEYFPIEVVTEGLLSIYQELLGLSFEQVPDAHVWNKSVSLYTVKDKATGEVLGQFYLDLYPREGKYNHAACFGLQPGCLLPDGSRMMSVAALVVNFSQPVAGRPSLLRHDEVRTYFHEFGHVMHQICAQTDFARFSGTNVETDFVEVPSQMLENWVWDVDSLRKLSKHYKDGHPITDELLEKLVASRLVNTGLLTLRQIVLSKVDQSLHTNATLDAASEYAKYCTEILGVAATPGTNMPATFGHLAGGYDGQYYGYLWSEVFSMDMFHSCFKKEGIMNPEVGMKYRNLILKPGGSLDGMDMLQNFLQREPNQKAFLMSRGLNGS
Assay: Enzymatic assay: QFS hydrolysis by rat recombinant neurolysin
Format: biochemical
Conditions: 10 μM compound; QFS 25 μM; compared to vehicle control
Peptide text beside a SMILES is read from it.

MOLECULE	% activity at 10 / %
CC(NCCN(C)C)C1CC2CCCCN2C1 (centres unmarked)	107
O=C(O)CNC(=O)CNC(=O)c1ccc2ccccc2n1	104
CNCCc1cn(C2OC(CO)C(O)C(O)C2O)cn1 (centres unmarked)	96
O=C1CSC(c2cccnc2)N1CCN1C(=O)CSC1c1cccnc1 (centres unmarked)	108
NCC(=O)N1CCC[C@H]1C(=O)NCC(=O)NCC(=O)O [Compound 89624] (H-GPGG-OH)	102
